biological target: Serum amyloid P-component (Homo sapiens) (UniProt P02743); assay: Inhibition of calcium dependent [125I]serum amyloid P-component (unknown origin) binding to immobilized influenza virus A/Shanghai/24/90 at 20 uM incubated for 2 hrs by fluorescence/electron microscopy relative to control
Sequence (P02743 whole entry): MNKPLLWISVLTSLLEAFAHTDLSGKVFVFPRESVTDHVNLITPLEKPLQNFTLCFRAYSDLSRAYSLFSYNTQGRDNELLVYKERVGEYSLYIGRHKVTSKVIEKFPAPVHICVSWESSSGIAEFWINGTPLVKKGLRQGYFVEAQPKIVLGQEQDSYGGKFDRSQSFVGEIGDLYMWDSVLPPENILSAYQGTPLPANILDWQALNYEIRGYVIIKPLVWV
Parameter: inhibition (%)
Reply with just the number (in %).

O=C(O)[C@H]1CCCN1C(=O)CCCCC(=O)N1CCC[C@@H]1C(=O)O = 90
O=C(O)[C@H]1CCCN1C(=O)[C@H]1CC[C@@H](C(=O)N2CCC[C@@H]2C(=O)O)CC1 = 83
C[N+](C)(C)CCOP(=O)([O-])O = 5
O=C(O)[C@H]1CCCN1C(=O)COc1ccc(OCC(=O)N2CCC[C@@H]2C(=O)O)cc1 = 82

Task item: Please report the recorded inhibition for O=C(O)[C@H]1CCCN1C(=O)COc1cccc2c(OCC(=O)N3CCC[C@@H]3C(=O)O)cccc12 .
Reply: 64

Task item: Further, for COc1cccc(OCC(=O)N2CCC[C@@H]2C(=O)O)c1OCC(=O)N1CCC[C@@H]1C(=O)O ?
Reply: 62

Task item: Further, for C[C@H](CS)C(=O)N1CCC[C@@H]1C(=O)O ?
Reply: 40

Task item: Further, for O=C(O)[C@H]1CCCN1C(=O)Cc1ccc(CC(=O)N2CCC[C@@H]2C(=O)O)cc1 ?
Reply: 85

Task item: Further, for O=C(O)[C@H]1CCCN1C(=O)Cc1cc(O)c(CC(=O)N2CCC[C@@H]2C(=O)O)cc1O ?
Reply: 80
